Tested on: MCF7 breast
test-protocol: NCI-60 one-dose screen, 48 h (100 = growth as untreated, 0 = no growth, -100 = all killed)
condition-context: 10 µM
The panel holds about 83,000 compounds, 20% with a hit somewhere; the sample as a whole holds those more often.
Kind request: treat 30% as inclusive, so growth at 30% or higher is label 1, anything lower is label 0.

Below, 9 compounds whose answers are already recorded.
{"columns": ["compound", "class"],
 "data": [
  ["COc1cc(/C=C2\\CN(C)C/C(=C\\c3cc(CN4CCOCC4)c(O)c(OC)c3)C2=O)cc(CN2CCOCC2)c1O", "label 0"],
  ["O=c1oc2ccc(I)cc2c(=O)n1-c1ccc(Cl)cc1F", "label 0"],
  ["COc1cccc2c1C=C1CCCCC3=Cc4c(OC)cccc4OC13O2", "label 0"],
  ["COc1ccc2sc(N(Cc3cccnc3)C(=O)c3ccc(C#N)cc3)nc2c1", "label 1"],
  ["CCOc1cc(Cl)c(C(C)NC(=O)c2cccc(OC)c2)cc1OCC (stereo not given)", "label 0"],
  ["O=Cc1cc2ccccc2nc1Nc1nccs1", "label 0"],
  ["CCOC(=O)CSc1c(-c2ccccc2)c2cc(Cl)ccc2[nH]c1=O", "label 1"],
  ["CC(=O)c1ccc(Cc2ccc(C(C)=O)s2)s1", "label 1"],
  ["Clc1ccc(-c2nnc(COc3ccc(C4=NNC(c5ccco5)C4)cc3)o2)cc1 (stereo not given)", "label 0"]
]}

Is growth at least 30%? Consider O=C(CN1C(=O)/C(=C\c2ccc(Cl)cc2)SC1=S)Nc1ncc(Cc2ccc(Cl)cc2)s1
label 1

###

System: TK-10 renal
test-protocol: NCI-60 one-dose screen, 48 h (100 = growth as untreated, 0 = no growth, -100 = all killed)
condition-context: 10 µM unless noted
Compounds without any hit were thinned out: in the full panel of roughly 83,000, 20% have a hit.
measure-name: growth (%)
Give bare numbers, in %.

{"columns": ["molecule", "unit-annotation", "growth"],
 "data": [
  ["COc1ccc(Cn2cc(Cn3c(=O)c(-c4nc5ccccc5[nH]4)cc4ccccc43)nn2)c(OC)c1OC", "%", 33.9],
  ["CCN1C(=O)N(CC)C2C1NC(=S)N2/N=C/C=C/c1ccccc1OC (stereo not given)", "%", 55.2],
  ["Cc1[nH]c2ccccc2c(=O)c1CC=C(Cl)Cl", "%", 43.4],
  ["O=C(Nc1ccc(I)cc1F)c1cc(Br)ccc1O", "%", 1.98]
]}

# next molecule below
Field request: growth | item: CN(C)c1ccc(N=Cc2ccc(N3CCOCC3)cc2)cc1
116

###

Consider the following compounds; for each one, report its growth.
System: HCT-15 colon
test-protocol: NCI-60 one-dose screen, 48 h (100 = growth as untreated, 0 = no growth, -100 = all killed)
condition-context: 10 µM unless noted
Compounds without any hit were thinned out: in the full panel of roughly 83,000, 20% have a hit.
Answers are plain numbers, in %.

The following compounds have reported results that may help.
{"columns": ["compound", "subject-of-test", "growth, %"],
 "data": [
  ["Cc1cccc2c(=O)c3c(sc12)c(NCCCNCCO)nc1ccccc13", "HCT-15 colon", 0.41],
  ["O=C1Nc2ccccc2/C1=C/c1cccs1", "HCT-15 colon", 78.8],
  ["CCOC(=O)c1cnc2ccc(Cl)cc2c1NCCCN(C)C", "HCT-15 colon", 26.2],
  ["O=C(CN1C=NC2C(N3CCOCC3)=NC=NC21)c1cccc2ccccc12 (stereo not given)", "HCT-15 colon", 95.8]
]}

List growth for every entry below, keeping the order given.
1. S=C1CCCC(=S)N1
2. C=C1C(=O)O[C@H]2[C@H]1CC/C(COC(=O)/C=C\C(=O)O)=C\CC[C@@]1(C)O[C@@H]21
3. CN(C)/C=C1\SC(=Nc2ccc(Cl)cc2)NC1=O
4. O=S1(=O)N(Cc2ccccc2)[C@@H](Cc2ccccc2)C2O[C@H]2[C@H](Cc2ccccc2)N1Cc1ccccc1 (stereo not given in full)

[101, 105, 103, 26.1]

List growth for every entry below, keeping the order given.
1. C=C(C)CCC(C)N1CCC(N2CCC(C(=O)NCCc3ccccc3)CC2)CC1 (stereo not given)
2. COC(=O)C1=Nc2ccc(F)cc2/C1=C/c1sc(=S)[nH]c1O
3. Nc1ccc(-c2nc3cc(Oc4ccc(Oc5ccc6[nH]c(-c7ccc(N)cc7)nc6c5)cc4)ccc3[nH]2)cc1
4. COc1cc([C@@H]2NC(=O)NC(C)=C2C(=O)Nc2nc(-c3ccc(Cl)cc3)cs2)ccc1O
5. CN1CCN(Cc2ccc(C(=O)Nc3cncc(C#Cc4cnc(N)c5ccccc45)c3)cc2C(F)(F)F)CC1
6. CCCCN1CCN(c2ccc3nc(-c4ccc5nc(-c6ccc(C(F)(F)F)cc6)[nH]c5c4)[nH]c3c2)CC1

1: 39.2; 2: 10.7; 3: 100; 4: 100; 5: -37.6; 6: -79

###

Test system: NCI-H23 lung
test-protocol: NCI-60 one-dose screen, 48 h (100 = growth as untreated, 0 = no growth, -100 = all killed)
condition-context: 10 µM unless noted
The panel holds about 83,000 compounds, 20% with a hit somewhere; the sample as a whole holds those more often.
Consider the following compounds; for each one, report its growth.
Answers are plain numbers, in %.

The following compounds have reported results that may help.
{"columns": ["compound", "value-measured"],
 "data": [
  ["CCN1C(=O)N(CC)C2C1NN=c1s/c(=C3\\C(=O)N(CC(C)(C)C)c4ccccc43)c(=O)n12 (stereo not drawn)", 45],
  ["CN1C(=O)N(C)C2(c3ccccc3)OC(=S)NC12c1ccccc1 (stereo not drawn)", 99.3],
  ["Nc1ccccc1-c1ccc(-c2ccc(Cl)cc2)c2c1[nH]c1ccccc12", 77],
  ["OC(c1ccccc1)c1nnc(SCc2ccccc2)n1Cc1ccccc1 (stereo not drawn)", 98.2]
]}

List growth for every entry below, keeping the order given.
1. Cc1cc(Br)c(N)c(Br)c1
2. CNCCNc1nc2ccccc2c2c(=O)c3cccc(C)c3sc12
3. COc1cc(C2C(C#N)=C(N)OC3=C2C(=O)c2ccccc2C3=O)cc(OC)c1OC (stereo not drawn)
4. O=C(/C=C/c1ccc(F)cc1)c1ccc(Nc2nc(NCCO)nc(Nc3ccc(Cl)cc3)n2)cc1
5. O=C1C(Cl)=C(NCc2ccco2)C(=O)c2ccccc21

1: 97; 2: 58.2; 3: 31.4; 4: 89.1; 5: 37.3

List growth for every entry below, keeping the order given.
1. O=c1cc(NC2CCN(CCCc3ccccc3)CC2)c2cc(Cl)ccc2o1
2. COC(=O)C1(C)COP(=O)(Nc2ccc(OC)cc2)OC1 (stereo not drawn)
3. OC(CNC1CCCCC1)Cn1c2ccc(I)cc2c2cc(I)ccc21 (stereo not drawn)

-1.92
102
76.6

List growth for every entry below, keeping the order given.
1. O=C(Nc1ccccc1O)c1ccc(-c2ccc(Cl)cc2Cl)o1
2. Cc1ccc2c(n1)C(=O)C(Oc1ccc(Br)cc1)=CC2=O
3. CCCN1CCN(c2ccc3nc(-c4ccc5nc(-c6cc(OC)ccc6OC)[nH]c5c4)[nH]c3c2)CC1
4. CCN1C(=O)N(CC)C2C1NC(=S)N2/N=C/C=C/c1ccccc1OC (stereo not drawn)
5. CN1C(=O)N(C)C2Nn3c(s/c(=C\c4ccc(Cl)cc4Cl)c3=O)=NC21 (stereo not drawn)
6. COc1ccccc1C1=C(Br)C(=O)c2nc(C)ccc2C1=O
7. Cc1ccc(OCCCCCCNCCO)c(C)c1
8. O=c1oc2ccc(Cl)cc2c(=O)n1-c1ccc(I)cc1F

1. 85
2. 94.5
3. 103
4. 24.3
5. 61.8
6. 93.4
7. 19.8
8. 2.29

###

Tested on: T-47D breast
test-protocol: NCI-60 one-dose screen, 48 h
condition-context: 10 µM unless noted
About 83,000 compounds went through this panel and 20% of them were active in at least one assay; those are over-represented in the sample as a whole. The source made the active and inactive calls. Rule for the calls: active = growth percent below 10; inactive = the rest.
Give your call using only these classes: active, inactive

{"columns": ["compound", "class"],
 "data": [
  ["O=C(CN1C(=O)/C(=C\\c2ccc(Cl)cc2)SC1=S)Nc1ncc(Cc2ccc(Cl)cc2)s1", "inactive"],
  ["Brc1ccc(Nc2nc3ccccc3nc2Nc2ccc(Br)cc2)cc1", "active"],
  ["O=NN(C(=O)NC1CCC(C(=O)O)CC1)C1CCC(C(=O)O)CC1 (stereo not given)", "inactive"],
  ["COc1nccc2cc3c(=O)n4c(cc5ccccc54)c(=O)n3c12", "inactive"]
]}

Which result was noted for this compound in the test: Nc1nonc1-n1nncc1-c1cccnc1
inactive

Which result was noted for this compound in the test: COc1cc(-c2c3c(c(Br)n2Cc2ccccc2)-c2nc(N)sc2CC3)cc(OC)c1OC
inactive

Which result was noted for this compound in the test: Nc1nc2c(ncn2[C@@H]2O[C@H](CS)[C@@H](O)[C@H]2O)c(=O)[nH]1
inactive
